# experiment summary: MTT cytotoxicity assay
# Assay type: cell-based
# condition set: human, HEK293 cells (method text: HEK293T), 24 h exposure
Give measured IC50 at 24 h for each item. Keep answers brief.

The recorded IC50 at 24 h for entry `O=C(C=Cc1ccccc1)OCCOc1cc(O)c2c(=O)cc(-c3ccc(O)c(O)c3)oc2c1` equals > 100 µM

The recorded IC50 at 24 h for entry `O=C(/C=C/c1ccc(O)cc1)NCCOc1cc(O)c2c(=O)cc(-c3ccc(O)c(O)c3)oc2c1` equals > 100 µM

The recorded IC50 at 24 h for entry `O=C(/C=C/c1cccnc1)OCCOc1cc(O)c2c(=O)cc(-c3ccc(O)c(O)c3)oc2c1` equals > 100 µM

The recorded IC50 at 24 h for entry `CC(=O)Oc1ccc(/C=C/C(=O)OCCOc2cc(O)c3c(=O)cc(-c4ccc(O)c(O)c4)oc3c2)cc1` equals > 100 µM

====

# assay target: BACE1 (Homo sapiens, UniProt P56817)
# Construct: purchased PanVera Co. (Invitrogen, USA)
# Sequence (P56817 46-501): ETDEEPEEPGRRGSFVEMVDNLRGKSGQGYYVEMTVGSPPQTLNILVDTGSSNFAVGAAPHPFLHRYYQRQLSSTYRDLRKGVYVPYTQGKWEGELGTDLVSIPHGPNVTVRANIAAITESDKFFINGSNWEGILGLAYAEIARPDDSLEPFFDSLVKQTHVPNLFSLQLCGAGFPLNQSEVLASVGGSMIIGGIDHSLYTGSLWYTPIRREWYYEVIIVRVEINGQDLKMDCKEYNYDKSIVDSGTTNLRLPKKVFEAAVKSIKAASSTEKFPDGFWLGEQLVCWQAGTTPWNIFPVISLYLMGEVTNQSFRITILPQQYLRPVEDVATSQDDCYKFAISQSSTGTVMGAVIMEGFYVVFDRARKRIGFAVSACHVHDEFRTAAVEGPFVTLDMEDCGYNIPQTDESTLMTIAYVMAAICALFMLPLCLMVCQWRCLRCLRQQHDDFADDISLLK
# experiment summary: In vitro BACE1 FRET enzyme assay
# Type: biochemical
# condition set: BACE1 FRET assay, 10 μM compound; read-out: Inhibition Rate at 10 μM (%)
parameter: inhibition at 10 µM (%)
Field format: number, assumed %, no unit text.

Record for O=C(/C=C/c1ccc(O)cc1)OCCOc1cc(O)c2c(=O)cc(-c3ccc(O)c(O)c3)oc2c1 [Compound 3] under target or system BACE1 (Homo sapiens, UniProt P56817): inhibition at 10 µM reported as 64.8

Record for CC(=O)Oc1ccc(/C=C/C(=O)OCCOc2cccc(-c3cc(=O)c4c(O)cc(O)cc4o3)c2)cc1 [Compound 4c] under target or system BACE1 (Homo sapiens, UniProt P56817): inhibition at 10 µM reported as 31.8

Record for O=c1cc(-c2ccc(O)c(O)c2)oc2cc(O)cc(O)c12 [Compound 1, luteolin] under target or system BACE1 (Homo sapiens, UniProt P56817): inhibition at 10 µM reported as 68.6

Record for O=C(/C=C/c1ccc(O)cc1)OCCCCCCCCOc1cc(O)c2c(=O)cc(-c3ccc(O)c(O)c3)oc2c1 [Compound 5e] under target or system BACE1 (Homo sapiens, UniProt P56817): inhibition at 10 µM reported as 36.1

Record for O=C(/C=C/c1ccc(Cl)cc1)OCCOc1cc(O)c2c(=O)cc(-c3ccc(O)c(O)c3)oc2c1 [Compound 7f] under target or system BACE1 (Homo sapiens, UniProt P56817): inhibition at 10 µM reported as 21.3

Record for O=C(/C=C/c1ccc(O)cc1)OCCOc1c(-c2ccc(O)c(O)c2)oc2cc(O)cc(O)c2c1=O [Compound 4j] under target or system BACE1 (Homo sapiens, UniProt P56817): inhibition at 10 µM reported as 59.2

Record for CC(C)(C)c1ccc(/C=C/C(=O)OCCOc2cc(O)c3c(=O)cc(-c4ccc(O)c(O)c4)oc3c2)cc1 [Compound 7j] under target or system BACE1 (Homo sapiens, UniProt P56817): inhibition at 10 µM reported as 37.6

Record for O=C(/C=C/c1ccc(O)cc1)NCCOc1cc(O)c2c(=O)cc(-c3ccc(O)c(O)c3)oc2c1 [Compound 8] under target or system BACE1 (Homo sapiens, UniProt P56817): inhibition at 10 µM reported as 59.5

Record for O=C(OCCOc1cc(O)c2c(=O)cc(-c3ccc(O)c(O)c3)oc2c1)c1ccc(O)cc1 [Compound 7o] under target or system BACE1 (Homo sapiens, UniProt P56817): inhibition at 10 µM reported as 51.9

Record for O=C(/C=C/c1ccc(O)cc1)OCCOc1ccc(-c2cc(=O)c3c(O)cc(O)cc3o2)cc1 [Compound 4h] under target or system BACE1 (Homo sapiens, UniProt P56817): inhibition at 10 µM reported as 36

Record for O=C(/C=C/c1ccc(O)cc1)OCCCCCCCCCCOc1cc(O)c2c(=O)cc(-c3ccc(O)c(O)c3)oc2c1 [Compound 5f] under target or system BACE1 (Homo sapiens, UniProt P56817): inhibition at 10 µM reported as 58.2

Record for O=C(/C=C/c1ccc(O)cc1)OCCOc1cccc(-c2cc(=O)c3c(O)cc(O)cc3o2)c1 [Compound 4d] under target or system BACE1 (Homo sapiens, UniProt P56817): inhibition at 10 µM reported as 39.6

Record for O=C(/C=C/c1ccoc1)OCCOc1cc(O)c2c(=O)cc(-c3ccc(O)c(O)c3)oc2c1 [Compound 7l] under target or system BACE1 (Homo sapiens, UniProt P56817): inhibition at 10 µM reported as 59.5

Record for CN(C)c1ccc(/C=C/C(=O)OCCOc2cc(O)c3c(=O)cc(-c4ccc(O)c(O)c4)oc3c2)cc1 [Compound 7h] under target or system BACE1 (Homo sapiens, UniProt P56817): inhibition at 10 µM reported as 53.8

Record for O=C(/C=C/c1cccc(O)c1)OCCOc1cc(O)c2c(=O)cc(-c3ccc(O)c(O)c3)oc2c1 [Compound 7c] under target or system BACE1 (Homo sapiens, UniProt P56817): inhibition at 10 µM reported as 66.7

Record for O=C(/C=C/c1ccc(O)cc1)Oc1cccc(-c2cc(=O)c3c(O)cc(O)cc3o2)c1 [Compound 4b] under target or system BACE1 (Homo sapiens, UniProt P56817): inhibition at 10 µM reported as 14.8

Record for O=C(/C=C/c1ccc(O)cc1)OCCOc1cccc2c(=O)cc(-c3ccc(O)c(O)c3)oc12 [Compound 4l] under target or system BACE1 (Homo sapiens, UniProt P56817): inhibition at 10 µM reported as 58.4

Record for O=C(/C=C/c1ccc(O)cc1)Oc1cc(O)c2c(=O)cc(-c3ccc(O)c(O)c3)oc2c1 [Compound 5g] under target or system BACE1 (Homo sapiens, UniProt P56817): inhibition at 10 µM reported as 41.4

Record for O=C(/C=C/c1ccc(O)cc1)OCCOc1ccc2oc(-c3ccc(O)c(O)c3)cc(=O)c2c1 [Compound 4k] under target or system BACE1 (Homo sapiens, UniProt P56817): inhibition at 10 µM reported as 60.6

Record for COc1ccc(/C=C/C(=O)OCCOc2cc(O)c3c(=O)cc(-c4ccc(O)c(O)c4)oc3c2)cc1 [Compound 7i] under target or system BACE1 (Homo sapiens, UniProt P56817): inhibition at 10 µM reported as 28.9

Record for O=C(/C=C/c1cccnc1)OCCOc1cc(O)c2c(=O)cc(-c3ccc(O)c(O)c3)oc2c1 [Compound 7k] under target or system BACE1 (Homo sapiens, UniProt P56817): inhibition at 10 µM reported as 54.4

Record for O=C(CCc1ccc(O)cc1)OCCOc1cc(O)c2c(=O)cc(-c3ccc(O)c(O)c3)oc2c1 [Compound 7p] under target or system BACE1 (Homo sapiens, UniProt P56817): inhibition at 10 µM reported as 56.7

Record for CC(=O)Oc1ccc(/C=C/C(=O)OCCOc2ccc(-c3cc(=O)c4c(O)cc(O)cc4o3)cc2)cc1 [Compound 4g] under target or system BACE1 (Homo sapiens, UniProt P56817): inhibition at 10 µM reported as 17.1

Record for CC(=O)Oc1ccc(/C=C/C(=O)OCCOc2cc(O)c3c(=O)cc(-c4ccc(O)c(O)c4)oc3c2)cc1 [Compound 7q] under target or system BACE1 (Homo sapiens, UniProt P56817): inhibition at 10 µM reported as 25.7
